# Experimental details: Renal clearance in wild-type bile duct-cannulated Sprague-Dawley rat at 2 mg/kg, iv administered 0.125 hr post GF-120918 treatment
# Assay type: ADME, organism-based, Kidney
# Set-up: dose 2 mg/kg, route intravenous
# Recorded conditions: in vivo, with GF-120918
Property label: CL renal at 0.125 h (mL/min/kg)
The answer is to be given in mL/min/kg; state only the numeric part.

I am curious: what CL renal at 0.125 h value has been reported for "COc1ccc(-n2nc(C(N)=O)c3c2[14C](=O)N(c2ccc(N4CCCCC4=O)cc2)CC3)cc1" ?
5.83

###

# Experimental details: Mean residence time in beagle dog at 5 mg/kg, po followed by activated charcoal administration 0.25 hrs post compound dosing
# Type: ADME, organism-based, Canis lupus familiaris
# Parameters: dose 5 mg/kg, route oral
# Recorded conditions: in vivo
Property label: MRT (h)
The answer is to be given in h; state only the numeric part.

I am curious: what MRT value has been reported for "COc1ccc(-n2nc(C(N)=O)c3c2C(=O)N(c2ccc(N4CCCCC4=O)cc2)CC3)cc1" ?
6.4

###

# Experimental details: Cmax in wild-type Sprague-Dawley rat at 4 mg/kg, po
# Assay type: ADME, organism-based
# Set-up: dose 4 mg/kg, route oral
# Recorded conditions: in vivo
Property label: Cmax (ng/mL)
The answer is to be given in ng/mL; state only the numeric part.

I am curious: what Cmax value has been reported for "COc1ccc(-n2nc(C(N)=O)c3c2C(=O)N(c2ccc(N4CCCCC4=O)cc2)CC3)cc1" ?
420

###

# Experimental details: Volume of distribution at steady state in P-gp-knockout Sprague-Dawley rat at 2 mg/kg, iv
# Format: ADME, organism-based
# Design: dose 2 mg/kg, route intravenous
# Recorded conditions: in vivo, read-out: Vdss
Property label: Vd (L/kg)
The answer is to be given in L/kg; state only the numeric part.

I am curious: what Vd value has been reported for "COc1ccc(-n2nc(C(N)=O)c3c2[14C](=O)N(c2ccc(N4CCCCC4=O)cc2)CC3)cc1" ?
0.7

###

# Experimental details: Cmax in beagle dog at 5 mg/kg, po followed by activated charcoal administration 0.25 hrs post compound dosing
# Type: ADME, organism-based, Canis lupus familiaris
# Parameters: dose 5 mg/kg, route oral
# Recorded conditions: in vivo
Property label: Cmax (ng/mL)
The answer is to be given in ng/mL; state only the numeric part.

I am curious: what Cmax value has been reported for "COc1ccc(-n2nc(C(N)=O)c3c2C(=O)N(c2ccc(N4CCCCC4=O)cc2)CC3)cc1" ?
8420

###

# Experimental details: Oral bioavailability in BCRP-knockout Sprague-Dawley rat at 4 mg/kg
# Assay type: ADME, organism-based
# Recorded conditions: in vivo
Property label: bioavailability (%)
The answer is to be given in %; state only the numeric part.

I am curious: what bioavailability value has been reported for "COc1ccc(-n2nc(C(N)=O)c3c2C(=O)N(c2ccc(N4CCCCC4=O)cc2)CC3)cc1" ?
122

###

# Experimental details: Plasma concentration in beagle dog at 5 mg/kg, po followed by activated charcoal administration 1 hr post compound dosing measured at 8 hrs
# Format: ADME, organism-based, Canis lupus familiaris
# Set-up: dose 5 mg/kg, route oral
Property label: concentration at 8 h (ng/mL)
The answer is to be given in ng/mL; state only the numeric part.

I am curious: what concentration at 8 h value has been reported for "COc1ccc(-n2nc(C(N)=O)c3c2C(=O)N(c2ccc(N4CCCCC4=O)cc2)CC3)cc1" ?
3380
